Hello, the source for this data is patent US20050282743A1, in case you need it.

biological target: PDZ protein (GST-PDZ fusion) (Homo sapiens); construct: made in house; host or cells: E. coli (DH5alpha, BL21 or JM109); assay: G' assay (10 uM PL peptide), results of TABLE 7 and TABLE 12; type: binding; details: PDZ KIAA807
Sequence (Q6P0Q8 whole entry, the tested form may be a part): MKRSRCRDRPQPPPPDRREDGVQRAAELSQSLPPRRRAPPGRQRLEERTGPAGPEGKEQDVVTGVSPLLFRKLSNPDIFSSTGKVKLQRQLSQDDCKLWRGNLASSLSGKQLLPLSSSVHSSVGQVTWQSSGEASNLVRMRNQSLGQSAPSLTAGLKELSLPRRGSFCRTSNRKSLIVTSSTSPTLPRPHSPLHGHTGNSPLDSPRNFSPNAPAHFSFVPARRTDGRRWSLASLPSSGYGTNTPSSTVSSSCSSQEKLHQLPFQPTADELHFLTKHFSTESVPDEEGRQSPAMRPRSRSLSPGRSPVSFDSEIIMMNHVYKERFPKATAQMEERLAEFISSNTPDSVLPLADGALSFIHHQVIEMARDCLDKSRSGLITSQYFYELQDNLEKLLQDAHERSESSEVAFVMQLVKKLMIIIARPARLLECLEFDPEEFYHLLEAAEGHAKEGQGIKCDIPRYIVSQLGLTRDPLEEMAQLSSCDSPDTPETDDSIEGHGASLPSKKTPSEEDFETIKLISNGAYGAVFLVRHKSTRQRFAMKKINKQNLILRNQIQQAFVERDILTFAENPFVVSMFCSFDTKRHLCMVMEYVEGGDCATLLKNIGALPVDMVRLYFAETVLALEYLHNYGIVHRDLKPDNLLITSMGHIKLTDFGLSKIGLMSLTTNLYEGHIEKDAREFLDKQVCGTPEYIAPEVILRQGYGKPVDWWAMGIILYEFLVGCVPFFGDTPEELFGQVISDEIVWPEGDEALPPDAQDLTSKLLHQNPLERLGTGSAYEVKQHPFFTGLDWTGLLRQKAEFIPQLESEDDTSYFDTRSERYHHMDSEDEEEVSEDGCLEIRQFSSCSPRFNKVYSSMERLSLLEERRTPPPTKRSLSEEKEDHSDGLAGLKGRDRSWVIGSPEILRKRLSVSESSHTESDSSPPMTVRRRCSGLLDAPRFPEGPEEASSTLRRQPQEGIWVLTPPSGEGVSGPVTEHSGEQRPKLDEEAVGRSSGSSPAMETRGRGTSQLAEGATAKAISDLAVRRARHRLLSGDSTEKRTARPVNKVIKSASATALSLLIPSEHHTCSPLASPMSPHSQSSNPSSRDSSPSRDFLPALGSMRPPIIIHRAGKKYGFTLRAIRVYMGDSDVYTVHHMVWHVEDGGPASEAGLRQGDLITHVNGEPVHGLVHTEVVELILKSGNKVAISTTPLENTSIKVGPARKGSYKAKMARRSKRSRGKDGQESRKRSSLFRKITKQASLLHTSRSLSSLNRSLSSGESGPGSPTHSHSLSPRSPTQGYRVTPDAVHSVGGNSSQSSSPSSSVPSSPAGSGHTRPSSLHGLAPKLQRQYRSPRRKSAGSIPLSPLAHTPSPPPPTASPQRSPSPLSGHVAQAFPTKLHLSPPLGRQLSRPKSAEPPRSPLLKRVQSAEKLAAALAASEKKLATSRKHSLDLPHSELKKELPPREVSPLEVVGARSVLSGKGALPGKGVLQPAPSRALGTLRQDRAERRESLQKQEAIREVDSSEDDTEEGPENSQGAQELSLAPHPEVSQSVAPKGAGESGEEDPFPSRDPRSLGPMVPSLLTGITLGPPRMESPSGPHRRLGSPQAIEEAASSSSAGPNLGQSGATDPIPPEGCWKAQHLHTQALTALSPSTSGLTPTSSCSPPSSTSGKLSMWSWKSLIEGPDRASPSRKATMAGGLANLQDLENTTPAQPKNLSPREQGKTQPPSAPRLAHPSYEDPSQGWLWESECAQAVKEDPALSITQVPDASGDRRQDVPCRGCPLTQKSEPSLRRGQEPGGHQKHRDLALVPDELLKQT
Ends that are not written are not given here. * marks the point of attachment. Biotin = O=C1N[C@H]2[C@H](CS[C@H]2CCCCC(=O)*)N1
EXPERIMENTAL_ENDPOINT: Classification

Look over these answered cases.
Request: Tell me the measured Classification of NSYVRDDAIFIKAIVDLTGL (Biotin-NSYVRDDAIFIKAIVDLTGL) [TRAF2] , please.
Response: 2 (A450 nm 1-2)

Request: Tell me the measured Classification of SSKSKSSEESQTFFGLYKL (Biotin-SSKSKSSEESQTFFGLYKL) [Fas Ligand] , please.
Response: 5 (A450 nm of 4 more than 2× repeated)

Request: Tell me the measured Classification of RDSFHRSSFRKAETQLSQGS (Biotin-RDSFHRSSFRKAETQLSQGS) [Clasp-5] , please.
Response: 1 (A450 nm 0-1)

Continuing:
Request: Tell me the measured Classification of PGQPPKVKSEFNSYSLTGYV (Biotin-PGQPPKVKSEFNSYSLTGYV) [claudin 2] , please.
Response: 1 (A450 nm 0-1)

Request: Tell me the measured Classification of KDSRPSFVGSSSGHTSTTL (Biotin-KDSRPSFVGSSSGHTSTTL) [CDw128B] , please.
Response: 5 (A450 nm of 4 more than 2× repeated)

Request: Tell me the measured Classification of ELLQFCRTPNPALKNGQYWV (Biotin-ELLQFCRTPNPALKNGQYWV) , please.
Response: 1 (A450 nm 0-1)

Request: Tell me the measured Classification of ACM3_HUMAN (Biotin-QQYQQRQSVIFHKRAPEQAL) , please.
Response: 1 (A450 nm 0-1)
